Sequence of the target: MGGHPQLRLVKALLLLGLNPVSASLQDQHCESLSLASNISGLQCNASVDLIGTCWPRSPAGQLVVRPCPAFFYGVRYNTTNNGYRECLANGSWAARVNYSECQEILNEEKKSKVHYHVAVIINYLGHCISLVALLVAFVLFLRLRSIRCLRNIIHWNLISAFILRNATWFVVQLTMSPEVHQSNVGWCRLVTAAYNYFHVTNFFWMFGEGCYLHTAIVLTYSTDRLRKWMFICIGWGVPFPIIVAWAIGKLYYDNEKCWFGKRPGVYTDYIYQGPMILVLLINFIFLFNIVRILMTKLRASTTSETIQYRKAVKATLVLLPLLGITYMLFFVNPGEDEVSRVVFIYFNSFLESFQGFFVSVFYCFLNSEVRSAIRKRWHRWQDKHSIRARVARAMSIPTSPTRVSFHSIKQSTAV
pKi: −log10 of the molar value.
So basically: pKi at 6 or higher? That is Fulfilled. Lower than 6? That is Not fulfilled.

COc1cccc(N/C(=N/Nc2ccccc2C(F)(F)F)C(C)=O)c1 ... Not fulfilled
CC(=O)/C(=N\c1cccc(F)c1)NNc1ccccc1Cl ... Fulfilled
CC(=O)C(=NNc1ccccc1S(C)(=O)=O)Nc1cccc(Cl)c1 ... Not fulfilled
CC(=O)/C(=N\Nc1ccccc1Cl)N(C)c1cccc(Cl)c1 ... Not fulfilled
C#Cc1cccc(NC(=NNc2ccccc2C(F)(F)F)C(C)=O)c1 ... Fulfilled
CC(=O)/C(=N\c1ccccc1)NNc1ccccc1Cl ... Fulfilled
COc1cccc(N/C(=N/Nc2ccccc2Cl)C(C)=O)c1 ... Fulfilled
CC(=O)/C(=N\c1ccccc1Cl)NNc1ccccc1 ... Not fulfilled
CC(=O)C(=NNc1ccccc1)Nc1ccccc1 ... Not fulfilled
CSc1cccc(N/C(=N/Nc2ccccc2Cl)C(C)=O)c1 ... Not fulfilled

q: Identify whether the reported pKi of the following compound is 6 or greater: CCOc1cccc(NC(=NNc2ccccc2C(F)(F)F)C(C)=O)c1
a: Not fulfilled

q: Identify whether the reported pKi of the following compound is 6 or greater: CC(=O)/C(=N\Nc1ccccc1)Nc1cccc(Cl)c1
a: Not fulfilled

q: Dear colleague, could you confirm whether CC(=O)/C(=N\Nc1ccccc1)N(C)c1cccc(Cl)c1 has pKi at or above 6?
a: Not fulfilled

q: Does the reported pKi for CC(=O)/C(=N\c1ccccc1)NNc1ccccc1C fall at or above the 6 mark?
a: Fulfilled

q: Entry CC(=O)/C(=N\Nc1ccccc1C)Oc1cccc(Cl)c1 : is its pKi no less than 6?
a: Not fulfilled

q: Does the reported pKi for CC(=O)C(=NNc1ccccc1C(F)(F)F)Nc1cccc(Cl)c1 fall at or above the 6 mark?
a: Fulfilled

q: Test whether the compound CC(=O)/C(=N\c1ccccc1Cl)NNc1ccccc1C#N records pKi of 6 or higher.
a: Not fulfilled

q: // inclusive: pKi at least 6? input: CC(=O)/C(=N\c1cccc(F)c1)NNc1ccccc1C
a: Fulfilled

q: Form field: pKi at least 6? Entry: CCOc1cccc(N/C(=N/Nc2ccccc2C)C(C)=O)c1
a: Not fulfilled

q: // inclusive: pKi at least 6? input: CC(=O)/C(=N\c1cccc(C)c1)NNc1ccccc1C
a: Fulfilled

q: Confirm if pKi reported for the compound CC(=O)/C(=N\c1cccc(C)c1)NNc1ccccc1Cl is 6 or above.
a: Fulfilled
